molecular target: hsst3 (Homo sapiens, UniProt P32745); construct: expressed in transfected cells; test: Somatostatin receptor radioligand binding assay, hsst3; details: CHO-K1 membranes, [125I-Tyr11]SS-14; read-out: hsst3 Ki
Sequence (P32745 whole entry): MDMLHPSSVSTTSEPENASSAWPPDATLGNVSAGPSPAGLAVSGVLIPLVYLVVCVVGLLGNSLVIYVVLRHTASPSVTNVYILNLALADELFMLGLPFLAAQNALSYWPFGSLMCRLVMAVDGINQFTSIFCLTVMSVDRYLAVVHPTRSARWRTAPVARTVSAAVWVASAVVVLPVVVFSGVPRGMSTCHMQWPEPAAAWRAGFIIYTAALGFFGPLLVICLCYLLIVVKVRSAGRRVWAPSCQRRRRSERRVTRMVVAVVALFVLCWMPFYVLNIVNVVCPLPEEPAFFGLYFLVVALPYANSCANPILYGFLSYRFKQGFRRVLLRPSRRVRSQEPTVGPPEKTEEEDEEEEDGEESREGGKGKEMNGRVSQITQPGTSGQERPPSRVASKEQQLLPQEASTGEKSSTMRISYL
ATTRIBUTE MEASURED: Ki (nM)
Please respond with the number in nM and leave the unit unwritten.

CC[C@@H]1NC(=O)[C@H](CCCCN)NC(=O)[C@@H](Cc2c[nH]c3ccccc23)NC(=O)[C@H](Cc2ccc(O)cc2)NC(=O)[C@@H](NC(=O)[C@@H](Cc2ccccc2)NC(=O)CN2CCN(CCNC(=O)CSC[C@@H]3C[C@@H]4c5cccc6[nH]cc(c56)C[C@H]4N(C)C3)CC2)CSSC[C@@H](C(=O)N[C@H](C(N)=O)[C@@H](C)O)NC1=O; 61.9
CCCN1C[C@H](CSCC(=O)N[C@H](Cc2ccccc2)C(=O)NCCOCCOCC(=O)N[C@H](Cc2ccccc2)C(=O)N[C@H]2CSSC[C@@H](C(=O)N[C@H](C(N)=O)[C@@H](C)O)NC(=O)[C@H](C(C)C)NC(=O)[C@H](CCCCN)NC(=O)[C@@H](Cc3c[nH]c4ccccc34)NC(=O)[C@H](Cc3ccc(O)c(I)c3)NC2=O)C[C@@H]2c3cccc4[nH]cc(c34)C[C@H]21; 397

Turning now to a further molecule:
Fill blank: measured Ki of the molecule CCCN1C[C@H](CSCC(=O)NCCN2CCN(CC(=O)NCCN3CCN(CC(=O)N[C@H](Cc4ccccc4)C(=O)N[C@H]4CSSC[C@@H](C(=O)N[C@H](C(N)=O)[C@@H](C)O)NC(=O)[C@H](C(C)C)NC(=O)[C@H](CCCCN)NC(=O)[C@@H](Cc5c[nH]c6ccccc56)NC(=O)[C@H](Cc5ccc(O)c(I)c5)NC4=O)CC3)CC2)C[C@@H]2c3cccc4[nH]cc(c34)C[C@H]21 is ____.
374

* * *

The following compounds are listed with their measured pKi values.
molecular target: hDA2; assay: Dopamine-2 receptor radioligand binding assay; conditions: [3H]spiperone
Numbered stars: 1 amine (or outer) side, 2 acyl side, 3 side chain; on linkers, the order of the positions; unused ones are H or OH. Bridge positions count the residues as written; N and C are the ends. Square brackets hold non-standard residues; d marks the D form. Peptide text beside a SMILES is read from it. * marks the point of attachment. X3 = CCCN1C[C@H](CSCC(=O)Oc2ccc(C[C@H](N[*:1])C(=O)[*:2])cc2I)C[C@@H]2c3cccc4[nH]cc(c34)C[C@H]21; X1 = CCCN1C[C@H](CSCC(=O)*)C[C@@H]2c3cccc4[nH]cc(c34)C[C@H]21; Pipz(1-CH2CO,4-CH2CH2NH) = O=C(CN1CCN(CCN[*:1])CC1)[*:2]; Abu = CC[C@H](N)C(=O)O; AEEA = NCCOCCOCC(=O)O
Scale: negative log10 of molar concentration, which is what pKi denotes.

# example entries with known answers
CCCN1C[C@H](CSCC(=O)NCCN2CCN(CC(=O)N[C@H](Cc3ccccc3)C(=O)N[C@H]3CSSC[C@@H](C(=O)N[C@H](C(N)=O)[C@@H](C)O)NC(=O)[C@H](CC)NC(=O)[C@H](CCCCN)NC(=O)[C@@H](Cc4c[nH]c5ccccc45)NC(=O)[C@H](Cc4ccc(O)cc4)NC3=O)CC2)C[C@@H]2c3cccc4[nH]cc(c34)C[C@H]21; 6.85
CCCN1C[C@H](CSCC(=O)N[C@H](Cc2ccccc2)C(=O)N[C@H]2CSSC[C@@H](C(=O)N[C@H](C(N)=O)[C@@H](C)O)NC(=O)[C@H](C(C)C)NC(=O)[C@H](CCCCN)NC(=O)[C@@H](Cc3c[nH]c4ccccc34)NC(=O)[C@H](Cc3ccc(OC(=O)CSC[C@@H]4C[C@@H]5c6cccc7[nH]cc(c67)C[C@H]5N(CCC)C4)c(I)c3)NC2=O)C[C@@H]2c3cccc4[nH]cc(c34)C[C@H]21; 7.78
CCCN1C[C@H](CNC(=O)CCCC(=O)N[C@H](Cc2ccccc2)C(=O)N[C@H]2CSSC[C@@H](C(=O)N[C@H](C(N)=O)[C@@H](C)O)NC(=O)[C@H](CC)NC(=O)[C@H](CCCCN)NC(=O)[C@@H](Cc3c[nH]c4ccccc34)NC(=O)[C@H](Cc3ccc(O)cc3)NC2=O)C[C@@H]2c3cccc4[nH]cc(c34)C[C@H]21; 6.64
CC[C@@H]1NC(=O)[C@H](CCCCN)NC(=O)[C@@H](Cc2c[nH]c3ccccc23)NC(=O)[C@H](Cc2ccc(O)cc2)NC(=O)[C@@H](NC(=O)[C@@H](Cc2ccccc2)NC(=O)CN(C)C(=O)N[C@H]2C[C@@H]3c4cccc5[nH]cc(c45)C[C@H]3N(C)C2)CSSC[C@@H](C(=O)N[C@H](C(N)=O)[C@@H](C)O)NC1=O; 7.02
CCCN1C[C@H](CSCC(=O)NCCN2CCN(CC(=O)NCCN3CCN(CC(=O)N[C@H](Cc4ccccc4)C(=O)N[C@H]4CSSC[C@@H](C(=O)N[C@H](C(N)=O)[C@@H](C)O)NC(=O)[C@H](CC)NC(=O)[C@H](CCCCN)NC(=O)[C@@H](Cc5c[nH]c6ccccc56)NC(=O)[C@H](Cc5ccc(O)cc5)NC4=O)CC3)CC2)C[C@@H]2c3cccc4[nH]cc(c34)C[C@H]21 [Example 36] (X1-[Pipz(1-CH2CO,4-CH2CH2NH)][Pipz(1-CH2CO,4-CH2CH2NH)][dF]CY[dW]K[Abu]CT-NH2; disulfide 4-9); 6.48

Fill blank: measured pKi of the compound CC(C)[C@@H]1NC(=O)[C@H](CCCCN)NC(=O)[C@@H](Cc2c[nH]c3ccccc23)NC(=O)[C@H](Cc2ccc(O)c(I)c2)NC(=O)[C@@H](NC(=O)[C@@H](Cc2ccccc2)NC(=O)CN2CCN(CCNC(=O)CN3CCN(CCNC(=O)CSC[C@@H]4C[C@@H]5c6cccc7[nH]cc(c67)C[C@H]5N(C)C4)CC3)CC2)CSSC[C@@H](C(=O)N[C@H](C(N)=O)[C@@H](C)O)NC1=O is ____.
6.51

Fill blank: measured pKi of the compound CCCN1C[C@H](CSCC(=O)NCCCC[C@@H](NC(=O)CSC[C@@H]2C[C@@H]3c4cccc5[nH]cc(c45)C[C@H]3N(CCC)C2)C(=O)N[C@H](Cc2ccccc2)C(=O)N[C@H]2CSSC[C@@H](C(=O)N[C@H](C(N)=O)[C@@H](C)O)NC(=O)[C@H]([C@@H](C)O)NC(=O)[C@H](CCCCN)NC(=O)[C@@H](Cc3c[nH]c4ccccc34)NC(=O)[C@H](Cc3ccc(O)c(I)c3)NC2=O)C[C@@H]2c3cccc4[nH]cc(c34)C[C@H]21 [Example 15] is ____.
7.74

Fill blank: measured pKi of the compound CCCN1C[C@H](CSCC(=O)N[C@H](Cc2ccccc2)C(=O)N[C@H]2CSSC[C@@H](C(=O)N[C@H](C(N)=O)[C@@H](C)O)NC(=O)[C@H](C(C)C)NC(=O)[C@H](CCCCN)NC(=O)[C@@H](Cc3c[nH]c4ccccc34)NC(=O)[C@H](Cc3ccc(O)c(I)c3)NC2=O)C[C@@H]2c3cccc4[nH]cc(c34)C[C@H]21 is ____.
7.47

Fill blank: measured pKi of the compound CCCN1C[C@H](CSCC(=O)N[C@H](Cc2ccccc2)C(=O)NCCOCCOCC(=O)N[C@H](Cc2ccccc2)C(=O)N[C@H]2CSSC[C@@H](C(=O)N[C@H](C(N)=O)[C@@H](C)O)NC(=O)[C@H](C(C)C)NC(=O)[C@H](CCCCN)NC(=O)[C@@H](Cc3c[nH]c4ccccc34)NC(=O)[C@H](Cc3ccc(OC(=O)CSC[C@@H]4C[C@@H]5c6cccc7[nH]cc(c67)C[C@H]5N(CCC)C4)c(I)c3)NC2=O)C[C@@H]2c3cccc4[nH]cc(c34)C[C@H]21 [Example 5] (X1-[dF][AEEA][dF]C[X3][dW]KVCT-NH2; disulfide 4-9) is ____.
7.81

Fill blank: measured pKi of the compound CCCN1C[C@H](CSCC(=O)NCCN2CCN(CC(=O)N[C@H](Cc3ccccc3)C(=O)N[C@H]3CSSC[C@@H](C(=O)N[C@H](C(N)=O)[C@@H](C)O)NC(=O)[C@H](C(C)C)NC(=O)[C@H](CCCCN)NC(=O)[C@@H](Cc4c[nH]c5ccccc45)NC(=O)[C@H](Cc4ccc(O)c(I)c4)NC3=O)CC2)C[C@@H]2c3cccc4[nH]cc(c34)C[C@H]21 is ____.
6.46
